# ASSAY_COMMENT: Stability of compound in simulated gastric fluid assessed as compound remaining at 2 mg/ml measured after 24 hrs by HPLC analysis
# Type: ADME
# CONDITION_DETAILS: read-out: Stability
PARAMETER_MEASURED: remaining at 24 h, 2 mg/ml (%)
Use % as the unit, but write only the number.

Q: If you can, please state the reported remaining at 24 h, 2 mg/ml value of N#Cc1ccccc1C1Sc2ccccc2NC2=C1C(=O)c1ccccc12 (stereo unspecified) .
Result: 70

* * *

# ASSAY_COMMENT: Cytotoxicity against HEC-1-A cells assessed as cell survival at 256 ug/ml incubated for 20 hrs by XTT assay relative to control
# Type: toxicity, cell-based
# CONDITION_DETAILS: human, at 256 µg/mL, read-out: Survival
Would you mind telling me the reported viability at 20 h, 256 ug/ml of each entry?

Q: If you can, please state the reported viability at 20 h, 256 ug/ml value of N#Cc1ccccc1C1Sc2ccccc2NC2=C1C(=O)c1ccccc12 (stereo not drawn) .
Result: ≥ 75%

Q: If you can, please state the reported viability at 20 h, 256 ug/ml value of COc1ccccc1C1Sc2ccccc2NC2=C1C(=O)c1ccccc12 (stereo not drawn) .
Result: ≥ 75%

Q: If you can, please state the reported viability at 20 h, 256 ug/ml value of Cc1cccc(C2Sc3ccccc3NC3=C2C(=O)c2ccccc23)c1F (stereo not drawn) .
Result: ≥ 75%

* * *

# ASSAY_COMMENT: Cytotoxicity against HEp-2 cells assessed as cell viability at 256 ug/ml incubated for 20 hrs by XTT assay relative to control
# Type: toxicity, cell-based
# CONDITION_DETAILS: human, at 256 µg/mL, read-out: Activity
PARAMETER_MEASURED: viability at 20 h, 256 ug/ml (%)
Use % as the unit, but write only the number.

Q: If you can, please state the reported viability at 20 h, 256 ug/ml value of COc1ccccc1C1Sc2ccccc2NC2=C1C(=O)c1ccccc12 (stereo not given) .
Result: 50

Q: If you can, please state the reported viability at 20 h, 256 ug/ml value of Cc1cccc(C2Sc3ccccc3NC3=C2C(=O)c2ccccc23)c1F (stereo not given) .
Result: 50

Q: If you can, please state the reported viability at 20 h, 256 ug/ml value of N#Cc1ccccc1C1Sc2ccc(C(F)(F)F)cc2NC2=C1C(=O)c1ccccc12 (stereo not given) .
Result: 100

Q: If you can, please state the reported viability at 20 h, 256 ug/ml value of N#Cc1ccccc1C1Sc2ccccc2NC2=C1C(=O)c1ccccc12 (stereo not given) .
Result: 50

Q: If you can, please state the reported viability at 20 h, 256 ug/ml value of COc1ccccc1C1Sc2ccc(C(F)(F)F)cc2NC2=C1C(=O)c1ccccc12 (stereo not given) .
Result: 100

Origin of values: ChEMBL document CHEMBL5380782
